- System Under Test: human VR1 receptors (Homo sapiens)
- Construct: cell type not specified
- Sequence (Q8NER1 whole entry): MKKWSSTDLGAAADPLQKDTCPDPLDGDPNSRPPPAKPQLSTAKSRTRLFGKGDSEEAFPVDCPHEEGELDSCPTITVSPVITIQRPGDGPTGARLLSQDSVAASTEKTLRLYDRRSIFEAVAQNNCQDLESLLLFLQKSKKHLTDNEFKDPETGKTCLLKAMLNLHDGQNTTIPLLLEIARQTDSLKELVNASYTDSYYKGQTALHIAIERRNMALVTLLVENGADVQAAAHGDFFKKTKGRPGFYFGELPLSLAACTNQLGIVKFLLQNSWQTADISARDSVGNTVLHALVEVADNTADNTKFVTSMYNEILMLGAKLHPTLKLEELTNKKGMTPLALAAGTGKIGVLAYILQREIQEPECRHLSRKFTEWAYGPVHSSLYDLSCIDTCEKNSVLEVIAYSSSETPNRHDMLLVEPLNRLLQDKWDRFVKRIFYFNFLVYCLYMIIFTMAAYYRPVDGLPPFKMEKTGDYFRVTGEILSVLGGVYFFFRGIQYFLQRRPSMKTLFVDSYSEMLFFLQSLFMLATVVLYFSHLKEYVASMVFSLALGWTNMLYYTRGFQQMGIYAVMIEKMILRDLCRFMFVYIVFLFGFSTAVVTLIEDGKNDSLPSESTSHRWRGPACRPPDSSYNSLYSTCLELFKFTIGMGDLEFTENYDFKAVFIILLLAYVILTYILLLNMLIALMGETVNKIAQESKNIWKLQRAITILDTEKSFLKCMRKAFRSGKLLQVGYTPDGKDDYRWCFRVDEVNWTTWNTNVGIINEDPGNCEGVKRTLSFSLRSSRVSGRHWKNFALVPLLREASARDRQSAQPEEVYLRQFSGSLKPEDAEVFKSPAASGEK
- Assay Overview: Human VR1 antagonist assay (Ca2+ imaging)
- Conditions: cells expressing human VR1, fura-2 Ca2+ imaging, FDSS 6000; capsaicin (300 nM) or acid (pH5.8) stimulation, table does not say which
The label rule met is reserved for IC50 strictly under 10 nM; rule not met covers values equal to or above it.

Compound | Cat
CCc1cc([C@@H](C)NC(=O)[C@H]2C[C@]2(C)c2ccc(C(F)(F)F)cc2)ccc1NS(C)(=O)=O | rule met
C[C@@H](NC(=O)[C@H]1C[C@@H]1c1cc(F)c(C(C)(C)C)c(F)c1)c1ccc(NS(C)(=O)=O)c(F)c1 | rule not met
C[C@@H](NC(=O)C1CC1c1ccc(C(C)(C)C)nc1)c1ccc(NS(C)(=O)=O)c(F)c1 (some centres unmarked) | rule not met
Cc1cc([C@@H](C)NC(=O)[C@H]2C[C@@H]2c2ccc(C(F)(F)F)nc2N2CCCC2)ccc1NS(C)(=O)=O | rule not met
C[C@@H](NC(=O)[C@H]1C[C@]1(C)c1ccc(C(F)(F)F)cc1)c1ccc(NS(C)(=O)=O)c(F)c1 | rule not met

Check if IC50 falls below 10 nM for "Cc1cc([C@@H](C)NC(=O)[C@H]2C[C@@H]2c2cc(F)c(C(C)(C)C)c(F)c2)ccc1NS(C)(=O)=O" . rule met

How about "C[C@@H](NC(=O)[C@H]1C[C@@H]1c1ccc(C(C)(C)C)c(F)c1)c1ccc(NS(C)(=O)=O)c(CO)c1" ? rule not met

How about "Cc1cc([C@@H](C)NC(=O)[C@H]2C[C@]2(C)c2ccc(C(F)(F)F)cc2)c(F)cc1NS(C)(=O)=O" ? rule met

How about CCC1(c2ccc(C(F)(F)F)cc2)CC1C(=O)N[C@H](C)c1ccc(NS(C)(=O)=O)c(C)c1 (some centres unmarked) ? rule met

How about Cc1cc([C@@H](C)NC(=O)C2CC2c2ccc(C(C)(C)C)nc2N2CCCC2)ccc1NS(C)(=O)=O (some centres unmarked) ? rule not met

----------
Entries annotated with measured log10(IC50)
- System Under Test: human VR1 receptors (Homo sapiens)
- Construct: cell type not specified
- Assay Overview: Human VR1 antagonist assay (Ca2+ imaging)
- Conditions: cells expressing human VR1, fura-2 Ca2+ imaging, FDSS 6000; capsaicin (300 nM) or acid (pH5.8) stimulation, table does not say which
Hi team, quick reminder: these entries are log10 of IC50 (nM).

Would you please look over these solved cases?
Compound | System Under Test | Measured Result
C[C@@H](NC(=O)[C@H]1C[C@]1(C)c1ccc(C(F)(F)F)cc1)c1cc(F)c(NS(C)(=O)=O)c(F)c1 [Example 61] | human VR1 receptors (Homo sapiens) | 0.50
Cc1cc([C@@H](C)NC(=O)C2CC2(C)c2cc(F)c(C(C)(C)C(F)(F)F)c(F)c2)ccc1NS(C)(=O)=O (single isomer, unassigned) [Example 71] | human VR1 receptors (Homo sapiens) | -0.32
C[C@@H](NC(=O)C1CC1(C)c1ccc(C(F)(F)F)c(F)c1)c1cc(F)c(NS(C)(=O)=O)c(F)c1 (stereo partly drawn) [Example 73] | human VR1 receptors (Homo sapiens) | -0.12
Cc1cc([C@@H](C)NC(=O)C2CC2(C)c2ccc(OC(F)(F)F)cc2)ccc1NS(C)(=O)=O (single isomer, unassigned) [Example 28] | human VR1 receptors (Homo sapiens) | 1.09
C[C@@H](NC(=O)C1CC1c1ccc(C(C)(C)C)nc1N1CCCCC1)c1ccc(NS(C)(=O)=O)c(F)c1 (stereo partly drawn) [Example 50] | human VR1 receptors (Homo sapiens) | 2.38

Could you now consider this next compound?
Test system human VR1 receptors (Homo sapiens); read-out log10(IC50); what value for Cc1cc([C@@H](C)NC(=O)C2CC2(C)c2ccc(C(F)(F)F)nc2)ccc1NS(C)(=O)=O (stereo partly drawn) [Example 12] ? 1.43

The origin of these recorded values is patent US7915448B2.
